Below: a set of entries, each annotated with reported T/C.
- System: L1210 leukemia ip in BDF1 mice, survival T/C
- Protocol Details: NCI In Vivo Anticancer Drug Screen. Data for tumor model L1210 Leukemia (intraperitoneal) in B6D2F1 (BDF1) mice
- Study Conditions: endpoint: mean survival time; dose: 100.0 mg/kg/injection; schedule: Q04DX003 (ip); vehicle: acetone; higher = longer survival
Inconclusive results and toxic doses are left out.

Examples from the recorded data:
Compound | Recorded Value
O=c1[nH]c2cc(Cl)ccc2c(CCl)c1Cl | 100 % of control
Cc1ncc(CO)c(C2NOCc3ccc(Cl)cc32)c1O (stereo unspecified) | 104 % of control
CCCCCCC(=O)/C=C/c1ccc(Cl)c(Cl)c1 | 101 % of control
O=C1OC(=O)C2C3C=CC(C12)C1C3C1N1C(=O)CCC1=O (stereo unspecified) | 88 % of control

For this compound ( "N#C/C(=C1C=C(Br)/C(=N\O)C=C\1Cl)c1ccc(Cl)cc1" ), measured T/C is 100 % of control

For this compound ( "Cc1cc(C)c(Sc2cc(C)sc2C)c(C)c1" ), measured T/C is 91 % of control

* * *

Below: a set of entries, each annotated with reported T/C.
- System: L1210 leukemia ip in BDF1 mice, survival T/C
- Protocol Details: NCI In Vivo Anticancer Drug Screen. Data for tumor model L1210 Leukemia (intraperitoneal) in B6D2F1 (BDF1) mice
- Study Conditions: endpoint: mean survival time; dose: 400.0 mg/kg/injection; schedule: Q01DX001 (ip); vehicle: saline; higher = longer survival
Toxic doses and inconclusive results are not listed.

Examples from the recorded data:
Molecule | Recorded Value
Nc1[nH]c(=O)[nH]c(=O)c1N=Nc1ccc(S(=O)(=O)Nc2ccccn2)cc1 | 104 % of control
Oc1cccnc1I | 102 % of control
N/N=C\c1cnnc2ccccc12 | 98 % of control

For this molecule ( CCC(C)OC(=O)C(C)OC(=O)OCCOCCOC(=O)OC(C)C(=O)OC(C)CC (configuration not stated) ), measured T/C is 96 % of control

For this molecule ( "Cc1[nH]c(=O)[nH]c(=O)c1CN(C)Cc1cc(Cl)cc(Cl)c1O" ), measured T/C is 101 % of control

For this molecule ( "O=C(Nc1ccc(Cl)c(Cl)c1)OCn1ncc2ccc([N+](=O)[O-])cc21" ), measured T/C is 100 % of control

* * *

- Tested on: L1210 leukemia ip in BDF1 mice, survival T/C
- Protocol Details: NCI In Vivo Anticancer Drug Screen. Data for tumor model L1210 Leukemia (intraperitoneal) in B6D2F1 (BDF1) mice
- Study Conditions: endpoint: mean survival time; dose: 50.0 mg/kg/injection; schedule: Q01DX009 (ip); vehicle: saline; higher = longer survival
Toxic doses and inconclusive results are not listed.
Below: a set of entries, each annotated with reported T/C.

Molecule | T/C
CC1C2CCC(C2)C1N (stereo not given) | 104 % of control

# input for lookup
So the reported T/C for "NC(=O)c1cn[nH]c1N1CC[N+](CCCl)=N1" , on L1210 leukemia ip in BDF1 mice, survival T/C, turned out to be 93 % of control

* * *

Below: a set of entries, each annotated with reported T/C.
- Tested on: L1210 leukemia ip in BDF1 mice, survival T/C
- Protocol Details: NCI In Vivo Anticancer Drug Screen. Data for tumor model L1210 Leukemia (intraperitoneal) in B6D2F1 (BDF1) mice
- Study Conditions: endpoint: mean survival time; dose: 100.0 mg/kg/injection; schedule: Q01DX001 (ip); vehicle: carboxymethylcellulose (CMC); higher = longer survival
Toxic doses and inconclusive results are not listed.

Examples from the recorded data:
Compound | Study Target | Recorded Value
O=NN(C(=O)Nc1ccccc1)c1ccccc1 | L1210 leukemia ip in BDF1 mice, survival T/C | 108 % of control
O=C(Nc1ccc(NC(=O)/C(Cl)=C/Cl)c2c1C(=O)c1ccccc1C2=O)/C(Cl)=C/Cl | L1210 leukemia ip in BDF1 mice, survival T/C | 92 % of control
c1ccc(N2CNN(c3ccccc3)CN2)cc1 | L1210 leukemia ip in BDF1 mice, survival T/C | 86 % of control
Oc1c2ccccc2cc2cnc3ccccc3c12 | L1210 leukemia ip in BDF1 mice, survival T/C | 107 % of control
CC(CO)(CO)N=Cc1cccc([N+](=O)[O-])c1 | L1210 leukemia ip in BDF1 mice, survival T/C | 103 % of control
Nc1nc(N)c(N=Cc2ccc(N(CCCl)CCCl)cc2)c(N)n1 | L1210 leukemia ip in BDF1 mice, survival T/C | 103 % of control
NN1C(=O)Cc2ccccc2C1=O | L1210 leukemia ip in BDF1 mice, survival T/C | 102 % of control
CCCCCCc1cc(N=Nc2ccc(S(=O)(=O)Nc3nccc(C)n3)cc2)c(O)cc1O | L1210 leukemia ip in BDF1 mice, survival T/C | 95 % of control
CCSCC1C=CC(n2cnc3c(N)ncnc32)O1 (configuration not stated) | L1210 leukemia ip in BDF1 mice, survival T/C | 109 % of control
CC(C)=CC(=O)C1C(=O)c2ccccc2C1=O | L1210 leukemia ip in BDF1 mice, survival T/C | 90 % of control

For this compound ( "CN(C)c1ccc(C=Nc2cccc(O)c2)cc1" ), measured T/C is 102 % of control

For this compound ( "Cc1ccccc1SCN(CSc1ccccc1C)C(C)(C)CC(C)(C)C" ), measured T/C is 101 % of control

* * *

Below: a set of entries, each annotated with reported T/C.
- Test system: L1210 leukemia ip in BDF1 mice, survival T/C
- Protocol Details: NCI In Vivo Anticancer Drug Screen. Data for tumor model L1210 Leukemia (intraperitoneal) in B6D2F1 (BDF1) mice
- Study Conditions: endpoint: mean survival time; dose: 400.0 mg/kg/injection; schedule: Q01DX001 (ip); vehicle: Klucel (hydroxypropylcellulose) (HPC); higher = longer survival
Inconclusive results and toxic doses are left out.

Compound | T/C
Cc1ccc(C(C)(C#N)Nc2ccccc2)cc1 (stereo not drawn) | 92 % of control
CCN(CC)S(=O)(=O)/C=C\c1ccccc1 | 102 % of control

# input for lookup
For this compound ( "CCc1c(C=O)[nH]c(=S)n(C)c1=O" ), measured T/C is 101 % of control

* * *

- System: L1210 leukemia ip in BDF1 mice, survival T/C
- Protocol Details: NCI In Vivo Anticancer Drug Screen. Data for tumor model L1210 Leukemia (intraperitoneal) in B6D2F1 (BDF1) mice
- Study Conditions: endpoint: mean survival time; dose: 12.5 mg/kg/injection; schedule: Q01DX009 (ip); vehicle: saline; higher = longer survival
Toxic doses and inconclusive results are not listed.
Below: a set of entries, each annotated with reported T/C.

Examples from the recorded data:
Molecule | T/C
CCN(CC)CCOc1ccccc1C(=O)CCc1ccccc1 | 93 % of control
CCN(CC)CCOC(=O)c1ccc(N)cc1 | 97 % of control
CCN(CC)CCC(CCN(CC)CC)(CNC(=O)CN(CC)CC)c1cccc2ccccc12 | 97 % of control
c1ccc2c(C3CCCCN3)c[nH]c2c1 (configuration not stated) | 88 % of control

So the reported T/C for O=[N+]([O-])c1ccc(C[Se]c2ncnc3c2ccn3C2OC(CO)C(O)C2O)cc1 (configuration not stated) , on L1210 leukemia ip in BDF1 mice, survival T/C, turned out to be 91 % of control

So the reported T/C for "CC(=O)Oc1ccc(C[n+]2ccccc2)cc1" , on L1210 leukemia ip in BDF1 mice, survival T/C, turned out to be 94 % of control

So the reported T/C for "Nc1nncs1" , on L1210 leukemia ip in BDF1 mice, survival T/C, turned out to be 120 % of control

* * *

Below: a set of entries, each annotated with reported T/C.
- System: L1210 leukemia ip in BDF1 mice, survival T/C
- Protocol Details: NCI In Vivo Anticancer Drug Screen. Data for tumor model L1210 Leukemia (intraperitoneal) in B6D2F1 (BDF1) mice
- Study Conditions: endpoint: mean survival time; dose: 200.0 mg/kg/injection; schedule: Q04DX003 (ip); vehicle: saline with Tween-80; higher = longer survival
- Procedure: The antitumor activity of compounds was measured in mice bearing transplantable tumors. Survival or tumor size were measured and the results are expressed as the measurement made in the treated group (T) divided by the measurement made in the vehicle treated control group (C). The tumor model used in this assay is L1210 Leukemia (intraperitoneal) in B6D2F1 (BDF1) mice
Inconclusive results and toxic doses are left out.

Compound | Recorded Value
Cc1ccc2c(c1)C=CC(C#N)N2C(=O)OCc1ccccc1 (centres undefined) | 97 % of control
C=CCc1ccc(OC(=O)Nc2cc(Cl)ccc2C)c(OC)c1 | 101 % of control
O=C1NC(=S)S/C1=C\c1ccc(N(CCCl)CCCl)cc1 | 93 % of control
COc1cc2cncc(CC(=O)c3ccc4c(c3)OCO4)c2cc1OC | 88 % of control

For this compound ( "CCCOC(=O)c1cncc(C(=O)OCCC)c1" ), measured T/C is 105 % of control

For this compound ( "COc1ccc2c(c1)C(=O)c1ccccc1-2" ), measured T/C is 98 % of control

For this compound ( O=[N+]([O-])C1(CO)COC(c2ccccc2)OC1 (centres undefined) ), measured T/C is 108 % of control

For this compound ( "Nc1nc(-c2ccccc2)nc2nonc12" ), measured T/C is 99 % of control

For this compound ( "COc1ccccc1NCS(=O)(=O)O" ), measured T/C is 102 % of control

meta.source: PubChem BioAssay AID248
